Assay: In vivo pharmacokinetics
Settings: BALB/c, mouse, plasma; mice, IP, 5 mg/kg
metric: half-life (h)
Give bare numbers, in h.

May I ask what half-life has been recorded for `Cc1ccc(O)c(C)c1-n1c(N)c(C(N)=O)c2cc(CCCCCC(=O)NO)c(C)nc21` ? 4.75

* * *

Biological target: IGF1R (Homo sapiens)
Construct: purchased Thermo Fisher Scientific (SelectScreen service)
Assay: SelectScreen kinase selectivity assay
Type: biochemical
metric: IC50

Value lookup for IC50; key = Cc1ccc(O)c(C)c1-n1c(N)c(C(N)=O)c2cc(CCCCCC(=O)NO)c(C)nc21 [PKHD-5] > 50 µM

* * *

Target: BMX (Homo sapiens, UniProt P51813)
Construct: purchased Thermo Fisher Scientific (SelectScreen service)
Sequence (P51813 1-675): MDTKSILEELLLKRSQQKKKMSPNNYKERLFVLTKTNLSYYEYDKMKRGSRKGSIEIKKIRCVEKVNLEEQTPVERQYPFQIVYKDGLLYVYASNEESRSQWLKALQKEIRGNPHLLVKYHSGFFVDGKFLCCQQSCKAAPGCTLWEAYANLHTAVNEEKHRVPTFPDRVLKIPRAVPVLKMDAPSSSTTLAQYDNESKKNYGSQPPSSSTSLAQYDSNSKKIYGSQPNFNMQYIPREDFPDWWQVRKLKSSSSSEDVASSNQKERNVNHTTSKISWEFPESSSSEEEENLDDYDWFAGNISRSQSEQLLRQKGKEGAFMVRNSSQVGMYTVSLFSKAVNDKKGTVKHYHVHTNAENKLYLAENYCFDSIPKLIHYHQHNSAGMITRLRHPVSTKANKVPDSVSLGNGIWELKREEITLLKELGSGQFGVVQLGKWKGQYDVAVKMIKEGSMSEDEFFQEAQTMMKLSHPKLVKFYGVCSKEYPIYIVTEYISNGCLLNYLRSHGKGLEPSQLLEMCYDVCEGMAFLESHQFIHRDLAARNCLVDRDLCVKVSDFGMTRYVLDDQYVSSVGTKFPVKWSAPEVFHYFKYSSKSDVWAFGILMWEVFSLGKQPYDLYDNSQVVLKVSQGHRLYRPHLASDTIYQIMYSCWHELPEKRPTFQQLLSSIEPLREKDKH
Experiment: SelectScreen kinase selectivity assay
Type: biochemical
metric: IC50

Fill in: IC50 of Cc1ccc(O)c(C)c1-n1c(N)c(C(N)=O)c2cc(CCCCCC(=O)NO)c(C)nc21 [PKHD-5] is ___ > 50 µM

* * *

Target: ABL2 (Homo sapiens, UniProt P42684)
Construct: purchased Thermo Fisher Scientific (SelectScreen service)
Experiment: SelectScreen kinase selectivity assay
Type: biochemical
metric: IC50

Observed IC50 on ABL2 (Homo sapiens, UniProt P42684) for `Cc1ccc(O)c(C)c1-n1c(N)c(C(N)=O)c2cc(CCCCCC(=O)NO)c(C)nc21` , please. > 50 µM

* * *

Target: FYN (Homo sapiens)
Construct: purchased Thermo Fisher Scientific (SelectScreen service)
Assay: SelectScreen kinase selectivity assay
Format: biochemical
metric: IC50

What value of IC50 has been recorded for this entry: `Cc1ccc(O)c(C)c1-n1c(N)c(C(N)=O)c2cc(CCCCCC(=O)NO)c(C)nc21` > 50 µM

* * *

Target: ZAK (Homo sapiens, UniProt Q9NYL2)
Construct: purchased Thermo Fisher Scientific (SelectScreen service)
Assay: SelectScreen kinase selectivity assay
Type: biochemical
metric: IC50

Any idea what IC50 came out for `Cc1ccc(O)c(C)c1-n1c(N)c(C(N)=O)c2cc(CCCCCC(=O)NO)c(C)nc21` on ZAK (Homo sapiens, UniProt Q9NYL2)? > 50 µM

* * *

Molecular target: INSR (Homo sapiens)
Construct: purchased Thermo Fisher Scientific (SelectScreen service)
Sequence (P06213 28-1382): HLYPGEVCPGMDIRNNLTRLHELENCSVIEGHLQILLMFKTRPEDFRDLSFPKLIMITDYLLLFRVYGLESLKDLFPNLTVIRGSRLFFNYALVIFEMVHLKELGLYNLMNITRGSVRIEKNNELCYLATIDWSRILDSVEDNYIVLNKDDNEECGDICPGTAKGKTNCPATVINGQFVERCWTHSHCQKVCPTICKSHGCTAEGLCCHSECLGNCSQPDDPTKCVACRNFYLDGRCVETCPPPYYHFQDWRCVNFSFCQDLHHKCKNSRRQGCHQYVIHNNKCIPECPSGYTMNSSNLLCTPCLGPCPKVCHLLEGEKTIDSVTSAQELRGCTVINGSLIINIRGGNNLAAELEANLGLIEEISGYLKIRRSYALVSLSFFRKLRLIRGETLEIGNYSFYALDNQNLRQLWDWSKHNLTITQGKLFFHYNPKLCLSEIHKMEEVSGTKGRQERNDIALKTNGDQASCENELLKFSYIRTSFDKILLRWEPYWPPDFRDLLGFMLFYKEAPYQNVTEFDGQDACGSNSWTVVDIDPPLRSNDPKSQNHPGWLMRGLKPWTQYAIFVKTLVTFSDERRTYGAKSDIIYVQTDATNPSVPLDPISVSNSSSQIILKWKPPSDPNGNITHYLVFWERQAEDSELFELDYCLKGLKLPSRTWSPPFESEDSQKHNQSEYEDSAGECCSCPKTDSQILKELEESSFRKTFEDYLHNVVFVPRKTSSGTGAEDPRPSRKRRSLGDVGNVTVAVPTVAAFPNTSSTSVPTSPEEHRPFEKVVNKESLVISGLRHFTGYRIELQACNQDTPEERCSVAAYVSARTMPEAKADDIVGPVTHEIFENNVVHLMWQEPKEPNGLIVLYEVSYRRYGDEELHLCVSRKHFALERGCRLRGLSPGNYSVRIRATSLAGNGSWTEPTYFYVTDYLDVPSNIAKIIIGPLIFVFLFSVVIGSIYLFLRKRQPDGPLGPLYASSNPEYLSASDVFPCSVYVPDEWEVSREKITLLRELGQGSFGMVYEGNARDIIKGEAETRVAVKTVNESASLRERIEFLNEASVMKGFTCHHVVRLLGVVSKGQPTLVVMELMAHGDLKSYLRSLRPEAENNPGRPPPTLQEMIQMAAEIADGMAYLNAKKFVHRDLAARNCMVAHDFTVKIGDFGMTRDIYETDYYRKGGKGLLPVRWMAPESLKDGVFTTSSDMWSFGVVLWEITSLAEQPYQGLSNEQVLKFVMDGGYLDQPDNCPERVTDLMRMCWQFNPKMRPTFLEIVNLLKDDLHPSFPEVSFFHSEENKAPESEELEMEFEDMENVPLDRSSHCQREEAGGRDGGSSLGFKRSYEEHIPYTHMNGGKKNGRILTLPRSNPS
Assay: SelectScreen kinase selectivity assay
Format: biochemical
metric: IC50

Given the entry `Cc1ccc(O)c(C)c1-n1c(N)c(C(N)=O)c2cc(CCCCCC(=O)NO)c(C)nc21` , report its measured IC50. > 50 µM

* * *

Molecular target: PLK1 (Homo sapiens)
Construct: purchased Thermo Fisher Scientific (SelectScreen service)
Assay: SelectScreen kinase selectivity assay
Assay type: biochemical
Description: The kinase selectivity analysis of PKHD-5 was performed using the SelectScreen kinase analysis service provided by Thermo Fisher Scientific. […] Ultimately, the IC50 values were calculated based on the concentration-inhibition curves by fitting a four-parameter logistic curve, thereby assessing the potency and selectivity of the inhibitors. […]
metric: IC50

Entry `Cc1ccc(O)c(C)c1-n1c(N)c(C(N)=O)c2cc(CCCCCC(=O)NO)c(C)nc21` : reported IC50 = ? > 50 µM

* * *

Assay: In vivo pharmacokinetics
Conditions: BALB/c, mouse, plasma; mice, PO, 5 mg/kg
metric: Cmax (nM)
Give bare numbers, in nM.

Request the reported Cmax associated with Cc1ccc(O)c(C)c1-n1c(N)c(C(N)=O)c2cc(CCCCCC(=O)NO)c(C)nc21 [PKHD-5] 2920

* * *

Biological target: JAK1 (Homo sapiens)
Construct: purchased Thermo Fisher Scientific (SelectScreen service)
Experiment: SelectScreen kinase selectivity assay
Type: biochemical
metric: IC50

Any idea what its IC50 is? The molecule is Cc1ccc(O)c(C)c1-n1c(N)c(C(N)=O)c2cc(CCCCCC(=O)NO)c(C)nc21 [PKHD-5] > 50 µM

* * *

System: HCC cell lines
Assay: MTT assay, all HCC cell lines
Type: cell-based
Settings: Homo sapiens, range over HepG2, Hep3B, Huh7, SNU449, HepG2/MDR, 48 h, read-out: IC50 values against all HCC cell lines
Procedure: The MTT assay was conducted to evaluate the inhibitory impact of PKHD-5 on HCC cells, HepG2/ADR cells, and normal liver cells ([Ding et al., 2020]). Cells at a density of 4×10^3 cells/well were inoculated into 96-well plates for overnight culture at 37°C. The cells were treated with varying concentrations of the test compounds and incubated for 48 h. […] The absorbance at 570 nm was determined with a Synergy 4 microplate reader (BioTek, United States). […]
metric: IC50

I would be grateful if you could share the reported IC50 for `Cc1ccc(O)c(C)c1-n1c(N)c(C(N)=O)c2cc(CCCCCC(=O)NO)c(C)nc21` . 190 to 920 nM

* * *

Experiment: In vivo pharmacokinetics
Conditions: BALB/c, mouse, plasma; mice, IP, 5 mg/kg
metric: bioavailability (%)
Give bare numbers, in %.

Requested read-out: bioavailability. Entry: `Cc1ccc(O)c(C)c1-n1c(N)c(C(N)=O)c2cc(CCCCCC(=O)NO)c(C)nc21` 82

* * *

Target: ROS1 (Homo sapiens, UniProt P08922)
Construct: purchased Thermo Fisher Scientific (SelectScreen service)
Sequence (P08922 28-2347): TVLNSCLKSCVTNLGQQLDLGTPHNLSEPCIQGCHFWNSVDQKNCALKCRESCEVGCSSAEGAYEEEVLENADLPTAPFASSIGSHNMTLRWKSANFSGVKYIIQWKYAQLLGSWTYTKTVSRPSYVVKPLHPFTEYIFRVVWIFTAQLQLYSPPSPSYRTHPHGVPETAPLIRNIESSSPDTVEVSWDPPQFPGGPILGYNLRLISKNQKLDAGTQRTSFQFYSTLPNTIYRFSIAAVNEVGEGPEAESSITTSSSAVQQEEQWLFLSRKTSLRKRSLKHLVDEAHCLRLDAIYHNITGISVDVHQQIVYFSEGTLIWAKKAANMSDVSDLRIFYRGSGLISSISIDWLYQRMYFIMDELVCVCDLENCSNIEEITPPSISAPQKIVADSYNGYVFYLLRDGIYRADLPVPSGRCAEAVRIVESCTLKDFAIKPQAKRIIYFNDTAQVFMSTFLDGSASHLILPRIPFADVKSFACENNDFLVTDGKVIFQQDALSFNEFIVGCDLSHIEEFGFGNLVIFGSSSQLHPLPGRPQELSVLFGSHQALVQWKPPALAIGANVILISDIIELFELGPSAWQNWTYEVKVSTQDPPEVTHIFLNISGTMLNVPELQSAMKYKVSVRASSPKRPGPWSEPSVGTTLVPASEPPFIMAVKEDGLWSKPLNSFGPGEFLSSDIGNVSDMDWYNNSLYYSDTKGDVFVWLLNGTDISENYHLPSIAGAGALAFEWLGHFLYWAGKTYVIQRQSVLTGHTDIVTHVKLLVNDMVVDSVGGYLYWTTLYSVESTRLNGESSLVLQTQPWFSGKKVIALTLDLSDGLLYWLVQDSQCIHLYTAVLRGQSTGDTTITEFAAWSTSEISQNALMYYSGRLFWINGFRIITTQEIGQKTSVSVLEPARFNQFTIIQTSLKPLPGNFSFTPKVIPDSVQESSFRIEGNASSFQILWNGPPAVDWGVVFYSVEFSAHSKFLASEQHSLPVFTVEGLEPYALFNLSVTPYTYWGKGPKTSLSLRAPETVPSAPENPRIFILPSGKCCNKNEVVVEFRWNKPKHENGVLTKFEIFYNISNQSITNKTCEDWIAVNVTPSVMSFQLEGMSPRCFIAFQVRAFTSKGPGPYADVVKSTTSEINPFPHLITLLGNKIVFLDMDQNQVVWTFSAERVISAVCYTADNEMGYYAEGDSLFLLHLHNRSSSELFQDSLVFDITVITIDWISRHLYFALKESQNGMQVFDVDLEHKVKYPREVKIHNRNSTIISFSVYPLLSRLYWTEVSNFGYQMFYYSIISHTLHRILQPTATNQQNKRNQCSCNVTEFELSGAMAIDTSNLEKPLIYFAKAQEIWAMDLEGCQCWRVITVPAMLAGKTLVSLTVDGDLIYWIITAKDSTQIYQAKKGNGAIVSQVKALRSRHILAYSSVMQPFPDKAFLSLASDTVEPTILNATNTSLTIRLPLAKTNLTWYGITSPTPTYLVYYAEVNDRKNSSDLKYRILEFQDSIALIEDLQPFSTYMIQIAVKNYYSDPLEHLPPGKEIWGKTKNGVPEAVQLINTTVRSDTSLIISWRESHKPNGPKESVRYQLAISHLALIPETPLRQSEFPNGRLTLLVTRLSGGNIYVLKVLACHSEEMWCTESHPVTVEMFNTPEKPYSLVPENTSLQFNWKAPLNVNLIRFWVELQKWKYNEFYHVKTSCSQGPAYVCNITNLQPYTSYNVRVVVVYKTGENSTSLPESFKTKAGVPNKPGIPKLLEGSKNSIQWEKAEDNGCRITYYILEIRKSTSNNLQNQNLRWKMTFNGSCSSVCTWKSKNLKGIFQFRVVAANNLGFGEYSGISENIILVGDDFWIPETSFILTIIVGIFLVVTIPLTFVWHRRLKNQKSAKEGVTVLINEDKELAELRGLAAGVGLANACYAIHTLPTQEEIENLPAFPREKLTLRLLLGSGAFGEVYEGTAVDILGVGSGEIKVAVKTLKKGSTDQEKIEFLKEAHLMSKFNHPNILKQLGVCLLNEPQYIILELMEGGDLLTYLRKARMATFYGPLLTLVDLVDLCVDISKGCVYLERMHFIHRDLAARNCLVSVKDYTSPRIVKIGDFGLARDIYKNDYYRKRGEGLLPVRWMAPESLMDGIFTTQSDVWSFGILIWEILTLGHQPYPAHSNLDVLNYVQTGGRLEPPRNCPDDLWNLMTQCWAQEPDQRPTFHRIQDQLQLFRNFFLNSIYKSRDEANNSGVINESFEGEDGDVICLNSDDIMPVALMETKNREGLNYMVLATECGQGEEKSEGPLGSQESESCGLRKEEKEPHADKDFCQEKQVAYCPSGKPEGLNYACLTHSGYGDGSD
Test: SelectScreen kinase selectivity assay
Assay type: biochemical
metric: IC50

What value of measured IC50 is listed for `Cc1ccc(O)c(C)c1-n1c(N)c(C(N)=O)c2cc(CCCCCC(=O)NO)c(C)nc21` ? > 50 µM

* * *

Biological target: EPHA7 (Homo sapiens)
Construct: purchased Thermo Fisher Scientific (SelectScreen service)
Sequence (Q15375 28-998): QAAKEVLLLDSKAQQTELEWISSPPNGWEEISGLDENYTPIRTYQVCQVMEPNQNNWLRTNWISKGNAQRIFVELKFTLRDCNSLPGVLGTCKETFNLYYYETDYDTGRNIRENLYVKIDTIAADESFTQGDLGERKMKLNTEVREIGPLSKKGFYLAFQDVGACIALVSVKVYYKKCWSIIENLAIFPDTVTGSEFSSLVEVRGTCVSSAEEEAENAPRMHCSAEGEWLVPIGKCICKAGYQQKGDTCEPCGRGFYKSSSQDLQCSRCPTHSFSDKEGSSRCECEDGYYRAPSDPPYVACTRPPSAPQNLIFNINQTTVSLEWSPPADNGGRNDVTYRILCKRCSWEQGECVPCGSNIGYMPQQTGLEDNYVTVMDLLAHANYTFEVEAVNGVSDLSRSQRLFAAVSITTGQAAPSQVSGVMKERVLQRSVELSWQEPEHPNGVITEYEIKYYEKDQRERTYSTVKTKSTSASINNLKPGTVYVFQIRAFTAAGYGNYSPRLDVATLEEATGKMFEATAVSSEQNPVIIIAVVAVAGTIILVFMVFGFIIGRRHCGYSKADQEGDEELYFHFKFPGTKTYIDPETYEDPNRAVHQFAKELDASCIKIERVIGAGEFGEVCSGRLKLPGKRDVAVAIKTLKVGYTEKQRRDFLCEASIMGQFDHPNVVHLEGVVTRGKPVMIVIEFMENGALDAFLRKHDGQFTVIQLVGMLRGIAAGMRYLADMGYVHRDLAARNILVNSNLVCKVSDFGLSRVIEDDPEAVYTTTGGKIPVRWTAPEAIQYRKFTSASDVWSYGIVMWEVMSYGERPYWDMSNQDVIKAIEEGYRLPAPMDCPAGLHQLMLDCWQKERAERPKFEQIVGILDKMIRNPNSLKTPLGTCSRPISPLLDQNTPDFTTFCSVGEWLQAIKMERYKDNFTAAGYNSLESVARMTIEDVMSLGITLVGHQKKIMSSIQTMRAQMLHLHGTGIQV
Assay: SelectScreen kinase selectivity assay
Assay type: biochemical
Experimental: The kinase selectivity analysis of PKHD-5 was performed using the SelectScreen kinase analysis service provided by Thermo Fisher Scientific. […] Ultimately, the IC50 values were calculated based on the concentration-inhibition curves by fitting a four-parameter logistic curve, thereby assessing the potency and selectivity of the inhibitors. […]
metric: IC50

Query (compound): `Cc1ccc(O)c(C)c1-n1c(N)c(C(N)=O)c2cc(CCCCCC(=O)NO)c(C)nc21` ; field requested: IC50 > 50 µM

* * *

Consider the following compounds; for each one, report its pIC50.
Target: Human recombinant PKMYT1 enzyme (Homo sapiens)
Construct: purchased Abcam
Sequence (Q99640 whole entry): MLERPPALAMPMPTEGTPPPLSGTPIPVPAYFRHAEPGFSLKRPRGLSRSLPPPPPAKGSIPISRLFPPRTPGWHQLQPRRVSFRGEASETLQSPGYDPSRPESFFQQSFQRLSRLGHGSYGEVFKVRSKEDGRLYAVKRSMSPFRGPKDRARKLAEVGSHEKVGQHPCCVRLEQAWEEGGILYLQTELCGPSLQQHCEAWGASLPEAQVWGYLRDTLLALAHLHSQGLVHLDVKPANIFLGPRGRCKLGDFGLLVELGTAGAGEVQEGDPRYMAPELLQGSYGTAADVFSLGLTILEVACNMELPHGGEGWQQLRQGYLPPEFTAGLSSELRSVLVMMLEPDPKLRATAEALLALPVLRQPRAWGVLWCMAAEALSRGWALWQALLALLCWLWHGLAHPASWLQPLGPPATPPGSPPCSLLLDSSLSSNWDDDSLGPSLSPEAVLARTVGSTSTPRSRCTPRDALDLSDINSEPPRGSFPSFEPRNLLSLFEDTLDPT
Assay: ADP-GLO enzyme inhibition assay
Assay type: biochemical
Conditions: ADP-GLO method
Procedure: The ADP-GLO™ kinase assay kit, purchased from Promega Corporation (Madison, WI, United States), included the ADP-GLO reagent, the kinase assay reagent, and ultra-pure ATP and ADP. […] Luminescence measurements were taken using an Envision plate reader (PerkinElmer). The IC50 value of each tested compound was calculated by GraphPad Prism software.
Numbers only, as −log10 of the molar value.

Reference set (2 entries):
>>> obs_value("Cc1ccc(O)c(C)c1-n1c(N)c(C(N)=O)c2cc(CCCCCC(=O)NO)c(C)nc21 [PKHD-5]")
8.50
>>> obs_value("Cc1ccc(O)c(C)c1-n1c(N)c(C(N)=O)c2cc(CCCCCC(=O)NO)c(CCCO)nc21 [PKHD-1]")
7.96

For every listed record, write down its pIC50.
1. CCc1nc2c(cc1CCCCCC(=O)NO)c(C(N)=O)c(N)n2-c1c(C)ccc(O)c1C [PKHD-2]
2. C=CCc1nc2c(cc1CCCCCC(=O)NO)c(C(N)=O)c(N)n2-c1c(C)ccc(O)c1C [PKHD-3]
3. CCCCc1nc2c(cc1CCCCCC(=O)NO)c(C(N)=O)c(N)n2-c1c(C)ccc(O)c1C [PKHD-4]

1: 8.11; 2: 8.03; 3: 7.87

* * *

Target: HCK (Homo sapiens)
Construct: purchased Thermo Fisher Scientific (SelectScreen service)
Experiment: SelectScreen kinase selectivity assay
Assay type: biochemical
metric: IC50

Request the reported IC50 associated with Cc1ccc(O)c(C)c1-n1c(N)c(C(N)=O)c2cc(CCCCCC(=O)NO)c(C)nc21 [PKHD-5] > 50 µM
